Kindly supply the reported Half-life mice values for the records listed here.
# assay.summary: Pharmacokinetic study in mice (i.v.)
# setup.conditions: terminal half-life, single intravenous dose of 20 mg/kg, lean C57bl mice
Give bare numbers, in h.

S{Beta-181}-[2-[2-[[2-[2-[2-[[2-[2-[2-[[(4S)-4-carboxy-4-(17-carboxyheptadecanoyl-amino)butanoyl]amino]ethoxy]ethoxy]acetyl]amino]ethoxy]ethoxy]acetyl]amino]-ethylamino]-2-oxoethyl]-Ala[Gln121,Leu168, … (protein) HPIPDSSPLLQFGGQVRQRYLYTDDAQQTEAHLEIREDGTVGGAADQSPESLLQLKALKPGVIQILGVKTSRFLCQRPDGALYGSLHFDPEACSFRELLLEDGYNVYQSEAHGLPLHLPGQKSPHRDPAPRGPARFLPLPGLPPALPEPPGILAPQPPDVGSSDPLSLVGPSQGRSPSYAC | 14

Next item in the queue.
Record S{Beta-181}-[2-[2-[[2-[2-[2-[[2-[2-[2-[[(4S)-4-carboxy-4-(13-carboxytridecanoyl-amino)butanoyl]amino]ethoxy]ethoxy]acetyl]amino]ethoxy]ethoxy]acetyl]amino]-ethylamino]-2-oxoethyl]-Ala[Gln121,Leu168,Cy … (protein) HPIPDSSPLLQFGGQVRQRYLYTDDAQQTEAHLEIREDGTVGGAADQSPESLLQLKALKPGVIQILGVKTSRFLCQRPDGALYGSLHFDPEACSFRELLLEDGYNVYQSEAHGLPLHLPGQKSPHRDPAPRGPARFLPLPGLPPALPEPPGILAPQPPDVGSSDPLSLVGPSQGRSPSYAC . Reported Half-life mice: 3
